TEST_NAME: soluble fraction after stress (log2 fold change); higher = more stays soluble; pooled small domains, quantitative proteomics
CONDITION_DETAILS: stress: pH 4
Please use y whenever soluble fraction (log2) is not below -0.2, and n whenever it is.

Study these solved cases before continuing.
# BIOPOLYMER_SEQUENCE, QUALITATIVE_LABEL
rows = [
    ("HMSQQEAQLNSLVKIYESMKPKDAARIFDTLDMDVLLDVVMRMKEARSAAVLAEMTPDRAKEVTLQLAD", "n"),
    ("HMVRRSERLHALTESLRRSGNRGRTAEQLATEFEVSVRTIKRDLVALEASGLPLWSRPGPGGGYGLLS", "y"),
    ("HMAEVPDLRNKTQQEAEAELTNHNLKLGNVTEEYSATVEAGRVISQSTSYGTKVLEGSSVDITISKGPEPT", "y"),
    ("HMEASVNAPMPGKIVSVSVSEGQQVNAGDVLLILEAMKMQNEITADAAGTVKAINVNAGQSVKNGDSLVIL", "n"),
    ("HMVLTSFHDNFPKTGTTYTVRSGDTISGIATKFGSTRDWIQNANEISHPKYLQVGRTLFIPH", "y"),
    ("HMDEQKNREIALIENIQREDLNPYEKALGIRNLMDKYGLTQEEVSKRIGKSRSAVSNTVRILNLAPDVL", "y"),
]

soluble fraction (log2) >= -0.2 for `HMSALTDQQQRVLELVASGLVYKEVAAALSISEPTVKYHMGNILTRLHVKNRAQAIAAARQQGLL` ?
n

* * *

TEST_NAME: soluble fraction after stress (log2 fold change); higher = more stays soluble; pooled small domains, quantitative proteomics
CONDITION_DETAILS: stress: pH 4
ASSAY_ENDPOINT: soluble fraction (log2)
Could you keep your reply to the number by itself?

Completed entries (count: 10):
# BIOPOLYMER_SEQUENCE, soluble fraction (log2)
records = [
    ("HMPESFSEMQKRTGVGEFSDDALSAKYVDSIDADVMSLDEYIMKVRGISLDDLEAERALRAR", -0.884),
    ("HMPIEQVEVPNLTNMTREEAESTLTSLNLKAQVHEEANEADEGKVFKQGTNTGEMVDEGSTIEIWVS", -0.555),
    ("HMLKFGLSQRELQILALLPTDEPLSILAKSLFISESTLKTHLTHIYRKLGVKNRLQAINVARKAGLLK", -0.502),
    ("HMESAQLIINVAGKVSNPGVYQLPQGSRVVDAIEAAGKQLKGVDISDINLARVLVDGEQILVGGV", -1.35),
    ("HMEMTDKEEELMRIFWNHGPMFVREIVELYPEPRPHFNTLSTFVRNLEQKGFVSHEAVGGSFRYYAV", -1.44),
    ("HMNTGLSEREHEIAQLVLQGRTYAEIGAELFISPRTAEHHIGQIRRRLAATSRSDLLAKLRVAMNTTEGAG", -0.567),
    ("HMPAGWIPARIRLADYPQLRSLAWHVQGIDTLTPTEALDIYERNARHLDAQAMSAQEQDLLASLRLALS", -1.06),
    ("HMQISDNTILEDAVSRIIDENPKSVSDYFQGKEAVVGFFIGQIMRETKGTANPKIAREIVISHLEAI", -0.819),
    ("HMIYSKSDLELFGIKKIDVMEENILMLILSEYELDQTPKNILIDEAVRLSKKFGADNAYKFVNATLDTLL", -1.51),
    ("HMKRLLLPGDLAGVRRHLLDRENSFHILRVLRLARGSTIEAMDDAGNRFSATLAGVKAGRALFDLAAKI", -0.245),
]

For the sequence shown here, `HMEKGWYKLGQDSYYVDDDGKIHKGWLELDGKKYYFDQEGKMVTGTVNIDGKDYTFNEKGELYVS` , give the reported soluble fraction (log2).
-0.029

Which value of soluble fraction (log2) has been reported for `HMAMNITQRHQEILAVIKQEKHITVSEISKLLGVSEVTIRKDFNYLEEKNLIYRHHGGASLNN` in the records?
-0.0786

Sample `HMGRKIDDPSSMTGAEKAAVILLALGDEQRQLWEMMDDEEIRVVSQAMVNLGNVTSGAVEKLIMEFVGSMS` — what was its soluble fraction (log2)?
-0.425
